FYI, the data here is from patent US20250313563A1.

Recorded IC50 for the following molecules
molecular target: GSK3α (GST-full length GSK3α) (Homo sapiens (Human)); assay: GSK3α TR-FRET kinase assay; assay type: biochemical; conditions: 1 nM GSK3α, 4 μM ATP, 30 minute preincubation, Table 16; read-out: GSK3-A TR-FRET BIOCHEMICAL (TR-FRET); IC50
Sequence (P49840 whole entry): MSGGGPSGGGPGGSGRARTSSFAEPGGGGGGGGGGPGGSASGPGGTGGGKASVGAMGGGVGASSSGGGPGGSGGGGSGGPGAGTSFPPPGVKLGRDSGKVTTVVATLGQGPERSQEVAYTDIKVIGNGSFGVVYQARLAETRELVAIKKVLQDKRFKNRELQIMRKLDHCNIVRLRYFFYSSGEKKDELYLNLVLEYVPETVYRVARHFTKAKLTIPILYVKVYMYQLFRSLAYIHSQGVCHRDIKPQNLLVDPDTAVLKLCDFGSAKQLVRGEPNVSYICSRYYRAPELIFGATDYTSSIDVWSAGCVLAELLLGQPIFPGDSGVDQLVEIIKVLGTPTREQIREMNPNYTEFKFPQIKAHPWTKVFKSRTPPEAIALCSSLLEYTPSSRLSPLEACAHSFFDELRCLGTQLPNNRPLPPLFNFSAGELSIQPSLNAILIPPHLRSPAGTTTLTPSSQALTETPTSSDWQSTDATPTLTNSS

Before answering, review these 5 worked examples.
MOLECULE	TEST TARGET	IC50
CC[C@@]1(c2ccccc2)C2=C(Nc3n[nH]cc31)[C@H](C)C[C@H](C)C2=O	GSK3α (GST-full length GSK3α) (Homo sapiens (Human))	> 5000 nM
CCC1(c2cccc(-c3cnn4c3CCCC4)c2)C2=C(CC(C)(C)CC2=O)Nc2n[nH]cc21 (stereo not shown)	GSK3α (GST-full length GSK3α) (Homo sapiens (Human))	≤ 100 nM
CCC1(c2cccc(-c3ccncc3F)c2)C2=C(CC(C)(C)CC2=O)Nc2n[nH]c(C)c21 (stereo not shown) [Compound 913017]	GSK3α (GST-full length GSK3α) (Homo sapiens (Human))	100 to 1000 nM
CC[C@@]1(c2cc(-c3cnn(C)c3)ccc2F)C2=C(CC(C)(C)CC2=O)Nc2n[nH]cc21	GSK3α (GST-full length GSK3α) (Homo sapiens (Human))	≤ 100 nM
CCC1(c2cccc(C3CCOC(C)(C)C3)c2)C2=C(CC(C)(C)CC2=O)Nc2n[nH]cc21 (stereo not shown) [Compound 912090]	GSK3α (GST-full length GSK3α) (Homo sapiens (Human))	100 to 1000 nM

Look up and state reported IC50 for `CC[C@]1(c2cccc(C(F)(F)F)c2)C2=C(Nc3n[nH]cc31)c1ccccc1C2=O` ≤ 100 nM

Please look at this molecule and report its IC50: CCC1(c2cccc(C(F)(F)F)c2)C2=C(CCN(c3ccn(C)n3)C2=O)Nc2n[nH]cc21 (stereo not shown) ≤ 100 nM
